Source of measurements: a melting point compilation (Tetko et al.; mined from patent text by program, amines drawn as free bases though some values may be those of a salt)

Property: melting point

Please review the following examples before continuing.
>>> print(df.to_string())
                                   compound       property  experimental_result
0  C=CCOCc1ccc([N+](=O)[O-])cc1Nc1nccc(-c2cccnc2)n1  melting point        213 to 215 °C
1  CCOC(=O)C1=C(C)NC(c2nccn2C)=NC1c1ccccc1Cl (stereo unspecified)  melting point        124 to 127 °C
2  CC(C)C(=O)N[C@@H](CSC(=O)c1ccccc1)C(=O)NCCSC(=O)C(C)C  melting point        155 to 157 °C
3   CCCCc1c(/C=C/C(=O)O)cc(OC)c2ccc(OC)cc12  melting point        174 to 176 °C
4    Nc1cc(-n2c(=O)oc3c(c2=O)CCC3)c(F)cc1Cl  melting point                93 °C
5      CCNC(=O)OCCOc1ccc(Oc2ccc(F)cc2)cc1Cl  melting point          42 to 43 °C
6  CCOC(=O)c1c2ccc(Cl)cc2c(-c2ccccc2)n1CC(=O)N(CC)CC  melting point        118 to 120 °C
7      O=NCNC1=Nc2ccc(Br)cc2C(c2ccccn2)=NC1  melting point        102 to 106 °C

Provide measured melting point value, entry: Cc1cccc(-c2ccc(S(=O)(=O)N3c4ccccc4CC3C(=O)O)cc2)c1 (stereo unspecified) 123 to 128 °C

Provide measured melting point value, entry: CNS(=O)(=O)c1cc(C(=O)CCl)ccc1Cl 153 °C

Provide measured melting point value, entry: COC(=O)c1cc2cc(NC(C)=O)ccc2o1 158 to 159 °C

----------
Property: melting point

>>> print(df.to_string())
                                   molecule  experimental_result
0  Cc1ccc(N2C(=O)C(O)=C(C(=O)c3ccc(C(C)C)cc3)C2c2ccc(-c3nnc(C)o3)cc2)nn1 (stereo unspecified)               293 °C
1                         O=C(O)CSc1sccc1Br          64 to 65 °C
2       N#Cc1ccc(N(Cc2ccc(O)cc2)n2cnnc2)cc1        228 to 230 °C
3  Cc1noc2cc3c(cc12)C1(CO3)C(=O)N(Cc2cccnc2)c2ccccc21 (stereo unspecified)        176 to 177 °C

Continue with the next molecule.
Provide measured melting point value, entry: COc1cc(OC)c2ccccc2c1O 87 to 88 °C

----------
Documented melting point across a set of compounds

Please review the following examples before continuing.
>>> df
                                   compound  experimental_result
0      CCc1nc2c(N)nc3ccccc3c2n1CC1(O)CCSCC1             > 250 °C
1  CNC(=O)C(NC(=O)c1cn(C)nc1C(F)(F)F)C(CO)c1ccccc1 (stereo not given)               194 °C
2  N[C@@H](Cc1ccccc1)C(=O)NCC(=O)Nc1ccc([N+](=O)[O-])cc1C(=O)c1ccccc1        144 to 146 °C

Provide measured melting point value, entry: CC(C)(C)COc1ccc(N(CC(=O)O)C(=O)c2cccn2-c2ccc(F)cc2)cc1C#N 140 to 143 °C

Provide measured melting point value, entry: Cc1nc2c(N)nc3cccnc3c2n1CC1(O)CCNCC1 > 260 °C

Provide measured melting point value, entry: Cc1c(N2CCC(C)(NC(=O)OC(C)(C)C)C2)c(F)c(N)c2c(=O)c(C(=O)O)cn(C3CC3)c12 (stereo not given) 214 °C

Provide measured melting point value, entry: O=C(O)COCc1cccc(-c2ccccc2OC2OC(CO)C(O)C(O)C2O)c1 (stereo not given) 77 to 78 °C

Provide measured melting point value, entry: C=CCOc1ccc2c(c1)CCC(=O)N2 123 to 125 °C

Provide measured melting point value, entry: CC(=O)C1CCC2C3CCC4CC(OS(C)(=O)=O)CCC4(C)C3C(OC(=O)CI)CC12C (stereo not given) 142 to 143 °C

Provide measured melting point value, entry: C#CC(C)(O)CCC=C(C)CCC=C(C)CCC=C(C)CCC=C(C)CCC=C(C)CCC=C(C)CCC=C(C)CCC=C(C)CCC=C(C)CCC=C(C)C (stereo not given) 35.5 to 36.5 °C

Provide measured melting point value, entry: CCOC(=O)C1CCc2cc3ccccc3n2C1=O (stereo not given) 82 to 84 °C

----------
Property: melting point

Please review the following examples before continuing.
                           smiles_structure       property  experimental_result
0  COC(=O)Nc1cccc(C)c1CNc1cc(C(=O)N(C)C)cc2c1nc(C)n2C  melting point        193 to 195 °C
1  COc1cc(CC(=O)NCCCc2ccc(C)c(C)c2)ccc1OCCNC(=O)c1ccccc1OC(C)=O  melting point        135 to 137 °C
2       Cc1nc2cnc3ccc(Cl)cc3c2n1-c1ccccc1Cl  melting point               178 °C
3  CC(C)(C)C(=O)OCN1C(=O)CN(CCN2CC(=O)N(COC(=O)C(C)(C)C)C(=O)C2)CC1=O  melting point        114 to 118 °C

Continue with the next compound.
Provide measured melting point value, entry: CN1C(=O)C(C(=O)Nc2ccc(Oc3ccc(C(F)(F)F)cn3)cc2)C(=O)N(C)C1=S 156 to 158 °C

----------
Documented melting point across a set of compounds

In [3]: df
Out[3]:
                                   compound  experimental_result
0             Nc1nc(N)c(N=O)c(OCC2CCCCC2)n1               254 °C
1              Clc1ccc2c(c1)CCN(c1ccccc1)C2          67 to 70 °C
2            CCOC(=O)c1cn(CC)c2sc(C)cc2c1=O        140 to 142 °C
3  CC1(C)Nc2ccccc2-n2cnc(-c3nc(C4CC4)no3)c21        175 to 179 °C
4  CC(C)(C)OC(=O)[C@@H]1CS[C@H](c2c(F)cccc2Cl)N1C(=O)CNC(=O)Nc1cccc(C(=O)O)c1               148 °C

Provide measured melting point value, entry: Cc1oc(-c2ccccc2)nc1CCOc1ccc(COc2ccccc2CC(=O)O)cn1 159 to 160 °C

Provide measured melting point value, entry: Nc1ncnc2c1ncn2C1CC(C=Cc2ccccc2)C(CO)O1 (stereo unspecified) 215 to 217 °C

Provide measured melting point value, entry: CCOc1cc(Cl)ccc1C=NNC(=N)NN=Cc1ccc(Cl)cc1OCC 180 to 182 °C

Provide measured melting point value, entry: CC1CC(C)(C)C(CNc2ccnc3cc(Cl)ccc23)C1N (stereo unspecified) > 250 °C

Provide measured melting point value, entry: CCNc1c(C(=O)OCC)c(C)nc(N2CCN(C)CC2)c1[N+](=O)[O-] 59 to 61 °C

Provide measured melting point value, entry: COc1ccc(CCNCC(O)c2ccccc2)cc1Cl (stereo unspecified) 95 to 96 °C

----------
Documented melting point across a set of molecules

Please review the following examples before continuing.
>>> df
                                   molecule       property  experimental_result
0  COc1nccc2c(=O)n(C)c(N3C=CC(OC4CCN(C5CCC5)CC4)=NC3)nc12  melting point        199 to 200 °C
1  COc1cc(OC)c(-c2cccs2)cc1/C=C/C(=O)c1ccc(S(=O)(=O)NCc2cccnc2)cc1  melting point        167 to 168 °C
2  O=C1Nc2ccc(Cl)cc2C(OCC2CC2)(C(F)(F)F)CN1C1CCC1 (stereo not given)  melting point               156 °C
3  CCN(CC)C(=O)c1c(Cl)cccc1C(=O)Nc1ccc(Cn2nc(C(F)(F)F)cc2C(F)(F)F)cc1C  melting point        105 to 107 °C

Continue with the next molecule.
Provide measured melting point value, entry: CCOCc1nc2c(N)nc3ccccc3c2n1CC1(O)CCCC1 156 to 158 °C

----------
Documented melting point across a set of molecules

Please review the following examples before continuing.
>>> df
                                   molecule  experimental_result
0  COCOc1cc(C(=O)O)n(Cc2ccc(C(F)(F)F)cc2Cl)n1        133 to 134 °C
1          COc1ccc(CC(=O)NCCc2ccc(N)cc2)cc1        112 to 114 °C
2  COc1cc(OCc2ccccn2)ccc1/C=C/c1cc(/C=C/c2cc3ccccc3[nH]2)n[nH]1        151 to 152 °C

Provide measured melting point value, entry: CC(C(=O)O)n1c(-c2ccc(Cl)cc2)nc2cccnc21 (stereo not given) 226 to 229 °C

Provide measured melting point value, entry: COCCn1cc2c(C3C(=O)Nc4ccc(Br)cc43)nc(NCCCN(C)C)nc2n1 (stereo not given) 297 to 298 °C
